These data points were gathered from ChEMBL document CHEMBL4411332.

- procedure text: Selectivity index, ratio of HC50 for human RBC to MIC99 for Escherichia coli
- Format: toxicity
- reported conditions: human red blood cells (RBC), read-out: Selectivity Index
assay endpoint: selectivity ratio

Look up selectivity ratio of `CC(C)[C@H](N)C(=O)NCC(=O)O[C@@H]1CC[C@@]2(C)[C@@H](C1)C[C@@H](OC(=O)CNC(=O)[C@@H](N)C(C)C)[C@@H]1[C@@H]2C[C@H](OC(=O)CNC(=O)[C@@H](N)C(C)C)[C@]2(C)[C@@H]([C@H](C)CCC(=O)OCc3ccccc3)CC[C@@H]12.Cl.Cl.Cl` and report it. 6 to 7

---

- procedure text: Selectivity index, ratio of IC50 for human A549 cells to MIC99 for Escherichia coli
- Format: toxicity
- reported conditions: read-out: Selectivity Index
assay endpoint: selectivity ratio

Look up selectivity ratio of `CC(C)[C@H](N)C(=O)NCC(=O)O[C@@H]1CC[C@@]2(C)[C@@H](C1)C[C@@H](OC(=O)CNC(=O)[C@@H](N)C(C)C)[C@@H]1[C@@H]2C[C@H](OC(=O)CNC(=O)[C@@H](N)C(C)C)[C@]2(C)[C@@H]([C@H](C)CCC(=O)OCc3ccccc3)CC[C@@H]12.Cl.Cl.Cl` and report it. 6 to 7
